TARGET_OF_ASSAY: PDGFR (Homo sapiens, UniProt P09619)
Sequence (P09619 33-1106): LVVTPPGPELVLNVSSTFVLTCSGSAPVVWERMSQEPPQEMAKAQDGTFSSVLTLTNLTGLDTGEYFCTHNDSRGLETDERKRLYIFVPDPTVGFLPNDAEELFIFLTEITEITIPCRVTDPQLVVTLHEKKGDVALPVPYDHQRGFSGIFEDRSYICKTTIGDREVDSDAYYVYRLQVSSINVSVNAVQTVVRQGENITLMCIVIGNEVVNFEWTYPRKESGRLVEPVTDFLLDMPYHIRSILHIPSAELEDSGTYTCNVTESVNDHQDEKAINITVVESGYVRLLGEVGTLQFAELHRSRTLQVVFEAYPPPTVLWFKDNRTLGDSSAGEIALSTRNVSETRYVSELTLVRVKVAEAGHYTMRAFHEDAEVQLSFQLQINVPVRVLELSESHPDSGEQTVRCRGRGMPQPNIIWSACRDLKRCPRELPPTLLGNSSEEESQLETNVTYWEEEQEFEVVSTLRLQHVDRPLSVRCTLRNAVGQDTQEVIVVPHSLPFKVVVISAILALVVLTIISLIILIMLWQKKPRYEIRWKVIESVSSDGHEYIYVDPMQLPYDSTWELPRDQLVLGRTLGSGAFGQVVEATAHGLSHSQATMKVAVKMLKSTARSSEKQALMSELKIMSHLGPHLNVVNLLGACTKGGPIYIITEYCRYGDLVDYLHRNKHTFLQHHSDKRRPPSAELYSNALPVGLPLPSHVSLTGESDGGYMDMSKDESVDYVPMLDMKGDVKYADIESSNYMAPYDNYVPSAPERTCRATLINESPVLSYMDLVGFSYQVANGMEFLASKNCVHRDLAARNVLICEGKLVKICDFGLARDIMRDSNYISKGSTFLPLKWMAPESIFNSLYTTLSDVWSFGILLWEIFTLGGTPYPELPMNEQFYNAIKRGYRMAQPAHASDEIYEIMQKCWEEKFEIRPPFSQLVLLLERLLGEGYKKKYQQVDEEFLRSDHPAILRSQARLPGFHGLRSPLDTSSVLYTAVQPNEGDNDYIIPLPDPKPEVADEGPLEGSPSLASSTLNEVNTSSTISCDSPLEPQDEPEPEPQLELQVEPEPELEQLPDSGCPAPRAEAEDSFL
EXPERIMENTAL_PROTOCOL: PDGF-stimulated receptor phosphorylation in U1242 cells, ELISA
Type: cell-based
Set-up: U1242 (PDGF-β receptor); host or cells: U1242 MG glioma cells
COND: 100 ng/ml PDGF-BB; read-out: ELISA P-TYR U1242 IC50
Response field label: string, one of condition met (IC50 strictly below 30 µM) or condition not met.

Reference set, count: 3
N#CC(=Cc1ccc(O)c(O)c1)c1c(C#N)c(N)nn1-c1ccccc1 [Compound C10] :: condition met
O=c1c2ccccc2nc(C=Cc2ccc(O)c(O)c2)n1CCO [Compound F10] :: condition not met
COc1cc2nc(Cl)c(-c3ccccc3)cc2c(OC)c1OC [Compound G11] :: condition met

Query: Please determine if N#CC(C(=O)Nc1ccc(C(F)(F)F)cc1)=C(O)Cc1ccccc1 [Compound B17] is below 30 µM in terms of IC50.
Reply: condition not met
